System: giant foxtail (Setaria faberii)
ASSAY_REMARKS: Test A postemergence
Type: in vivo
TEST_SETTINGS: Setaria faberi, post-emergence, 240 h, Postemergence, 31 g ai/ha; visual injury after approx. 10 d; 0 to 100 scale, 0 no effect, 100 complete control; read-out: Plant response rating, Foxtail, Giant
EXPERIMENTAL_ENDPOINT: pest or weed control at 31 g/ha (%)
Reply numerically in %, unit not repeated.

Please review the following examples before continuing.
SMILES_TEXT | VALUE_MEASURED
CON1CC[C@H](c2ccc(C(F)(F)F)cc2)[C@@H](C(=O)Nc2ccc(F)c(F)c2F)C1=O | 0
CSc1ccccc1NC(=O)[C@H]1C(=O)N(C)CC[C@@H]1c1ccc2c(c1)OC(F)(F)O2 | 0

Below: the item to evaluate.
Given the molecule CN1C[C@H](c2csc3c2CCOC3)[C@@H](C(=O)Nc2ccc(F)c(F)c2F)C1=O , what is its reported pest or weed control at 31 g/ha?
50

* * *

Test system: ragweed (common ragweed, Ambrosia elatior)
ASSAY_REMARKS: Test A preemergence
Type: in vivo
TEST_SETTINGS: Ambrosia artemisiifolia, pre-emergence, 240 h, 500 g ai/ha, preemergence; 0 to 100 scale where 0 is no effect and 100 is complete control; read-out: Ragweed plant response rating
EXPERIMENTAL_ENDPOINT: pest or weed control at 500 g/ha
Please answer using a numeric value trailed by its unit.

Item CN1CC[C@H](c2ccc(C(F)(F)F)cc2)[C@@H](C(=O)Nc2ccc(F)c(F)c2F)C1=O [Compound 1226] has what recorded pest or weed control at 500 g/ha?
30%

Recorded pest or weed control at 500 g/ha of Cc1ccc([C@H]2CCN(C)C(=O)[C@@H]2C(=O)Nc2ccccc2C(F)(F)F)cc1 [Compound 1219] , please.
0%

# pest or weed control at 500 g/ha lookup, item O=C1NC[C@H](c2ccc(C(F)(F)F)cc2)C1C(=O)Nc1c(F)cccc1CO (stereo partly shown) [Compound 1243]
0%

* * *

List of Corn plant response rating (crop injury, 0 = no effect, 100 = complete kill) at 500 g/ha values.
Tested on: corn (Zea mays)
ASSAY_REMARKS: Test A postemergence
Assay type: in vivo
TEST_SETTINGS: Zea mays, post-emergence, 240 h, 500 g ai/ha, postemergence; visual injury, 0 to 100 scale (0 no effect, 100 complete control), approx. 10 d
// note: answer is a bare numeric in %

Would you please look over these solved cases?
COMPOUND | VALUE_MEASURED
Cc1cc([C@H]2CNC(=O)[C@@H]2C(=O)Nc2ccccc2Cl)ccc1C(F)(F)F | 50
Cc1ccc([C@H]2CNC(=O)[C@@H]2C(=O)Nc2cccc(F)c2F)cc1C | 50
O=C1NC[C@H](c2ccc3c(c2)CCC3)[C@H]1C(=O)Nc1ccccc1F | 40
O=C(Nc1ccccc1C(F)(F)F)[C@H]1C(=S)NC[C@@H]1c1ccc(C(F)(F)F)cc1 (racemic) | 0

Let's switch to this compound now.
What does the data say about its Corn plant response rating (crop injury, 0 = no effect, 100 = complete kill) at 500 g/ha? Entry: Cc1ccc([C@H]2CN(C)C(=O)[C@@H]2C(=O)Nc2ccccc2F)cc1C
80

* * *

System: ryegrass, Italian (Italian ryegrass, Lolium multiflorum)
ASSAY_REMARKS: Test A preemergence
Assay type: in vivo
TEST_SETTINGS: 125 g ai/ha, preemergence; 0 to 100 scale (0 no effect, 100 complete control)
Source text: […]
EXPERIMENTAL_ENDPOINT: Plant response rating, Ryegrass, Italian
Please give only the number in your answer, with no unit.

Give its Plant response rating, Ryegrass, Italian value. Item: CCc1ccc(C2CNC(=O)C2C(=O)Nc2ccccc2F)cc1 (centres unmarked)
0

What value of Plant response rating, Ryegrass, Italian has been reported for the following molecule? CN1CC(c2ccc(Cl)cc2)C(C(=O)Nc2cccc(F)c2F)C1=O (centres unmarked)
60

If you can, please state the reported Plant response rating, Ryegrass, Italian value of CN1CC(c2ccc(C(F)(F)F)c(F)c2)C(C(=O)Nc2ccccc2F)C1=O (centres unmarked) .
20

Entry O=C1NCC(c2ccc(Br)cc2)C1C(=O)Nc1ccccc1F (centres unmarked) has what Plant response rating, Ryegrass, Italian?
0

If you can, please state the reported Plant response rating, Ryegrass, Italian value of Cc1cccc(C2CNC(=O)C2C(=O)Nc2ccccc2F)c1 (racemic) .
0

* * *

Tested on: ragweed (common ragweed, Ambrosia elatior)
ASSAY_REMARKS: Test A preemergence
Type: in vivo
TEST_SETTINGS: 500 g ai/ha, preemergence; 0 to 100 scale, 0 = no effect, 100 = complete control
EXPERIMENTAL_ENDPOINT: Plant response rating, Ragweed
Answer using only a numeral; do not append any unit.

Below, each entry is followed by its recorded Plant response rating, Ragweed result.
COMPOUND | Plant response rating, Ragweed
Cc1ccc(C2CN(C)C(=O)C2C(=O)Nc2ccccc2S(C)(=O)=O)cc1 (stereo not shown) | 70
CN1CC(c2ccc(C(C)(F)F)cc2)C(C(=O)Nc2ccc(F)cc2F)C1=O (stereo not shown) | 60
O=C1NCC(c2ccc(I)cc2)C1C(=O)Nc1cccc(F)c1 (racemic) | 0

Shifting focus to the compound that follows.
Returns the measured Plant response rating, Ragweed for the input compound. Input: CC(C)Oc1cccc(C2CN(C)C(=O)C2C(=O)Nc2ccccc2S(C)(=O)=O)c1 (stereo not shown)
80

* * *

Tested on: corn (Zea mays)
ASSAY_REMARKS: Test A postemergence
Assay type: in vivo
TEST_SETTINGS: Zea mays, post-emergence, 240 h, 125 g ai/ha, Postemergence; visual injury after approximately 10 d; 0 to 100 scale where 0 is no effect and 100 is complete control
# maps each entry to its Corn plant response rating (crop injury, 0 = no effect, 100 = complete kill) at 125 g/ha
Expressed in %, but write only the number.

Worked cases, Corn plant response rating (crop injury, 0 = no effect, 100 = complete kill) at 125 g/ha given:
MOLECULE | UNITS_LABEL | VALUE_MEASURED
CN1C[C@H](c2cc(C(F)(F)F)cs2)[C@@H](C(=O)Nc2ccccc2F)C1=O | % | 0
O=C1NC[C@H](c2ccc3c(c2)OCO3)[C@H]1C(=O)Nc1ccc(F)c(F)c1F | % | 0
CN1C[C@H](c2cc(F)cc(F)c2)[C@@H](C(=O)Nc2cc(O)ccc2F)C1=O | % | 0
COc1c(F)ccc([C@H]2CNC(=O)[C@@H]2C(=O)Nc2ccccc2S(C)(=O)=O)c1Cl | % | 0
Cc1ccc([C@H]2CNC(=S)[C@@H]2C(=O)Nc2cccc(F)c2F)cc1 (racemic) | % | 0

Hi! What's the reported Corn plant response rating (crop injury, 0 = no effect, 100 = complete kill) at 125 g/ha for Cc1ccc([C@H]2CNC(=O)[C@@H]2C(=O)Nc2cccc(F)c2F)cc1C on corn (Zea mays)?
10

Lookup: Corn plant response rating (crop injury, 0 = no effect, 100 = complete kill) at 125 g/ha / corn (Zea mays) / Cc1cc([C@H]2CN(C)C(=O)[C@@H]2C(=O)Nc2cccc(F)c2F)cc(C)c1Br
70

So what Corn plant response rating (crop injury, 0 = no effect, 100 = complete kill) at 125 g/ha did CC(C)Oc1ccc([C@H]2CN(C)C(=O)[C@@H]2C(=O)Nc2ccccc2F)cc1 get with corn (Zea mays)?
0

* * *

Test system: barnyardgrass (Echinochloa crus-galli)
ASSAY_REMARKS: Test G Post-Emergence Protocol
Type: in vivo
TEST_SETTINGS: Echinochloa crus-galli, post-emergence, 312 h, 15.625 g ai/ha, evaluated after 13 days (100=total damage to plant; 0=no damage to plant), read-out: Barnyardgrass damage rating
Below is a list of entries, each paired with its recorded pest or weed control at 15.625 g/ha value.
Quick reminder: number only, in %, skip the unit.

Below, 3 compounds whose answers are already recorded.
COMPOUND | UNITS_LABEL | pest or weed control at 15.625 g/ha
CN1C[C@@H](c2ccc(C(F)(F)F)cc2)[C@H](C(=O)Nc2ccc(Cl)cc2F)C1=O (racemic) [Compound 1602] | % | 0
C#Cc1ccccc1NC(=O)[C@H]1C(=O)N(C)C[C@@H]1c1ccc(C(F)(F)F)cc1 (racemic) [Compound 1422] | % | 0
CN1C[C@@H](c2ccc(C(F)(F)F)cc2)[C@H](C(=O)Nc2cccc(F)c2)C1=O (racemic) [Compound 1623] | % | 10

Then this compound:
Give the measured pest or weed control at 15.625 g/ha of CN1C[C@@H](c2ccc(C(F)(F)F)cc2)[C@H](C(=O)Nc2ccccc2Cl)C1=O (racemic) [Compound 1598] .
30

* * *

Tested on: ryegrass, Italian (Italian ryegrass, Lolium multiflorum)
ASSAY_REMARKS: Test A postemergence
Type: in vivo
TEST_SETTINGS: Lolium multiflorum, post-emergence, 240 h, 125 g ai/ha, postemergence; visual injury on 0 to 100 scale (0 no effect, 100 complete control), approx. 10 d; read-out: Ryegrass, Italian plant response rating
EXPERIMENTAL_ENDPOINT: pest or weed control at 125 g/ha (%)
Answer format: numeric, % implied, no suffix.

Here's what some known entries look like.
SMILES_TEXT | EXPERIMENTAL_ENDPOINT | UNITS_LABEL | VALUE_MEASURED
CN1C[C@H](c2cc(C(F)F)cs2)[C@@H](C(=O)Nc2ccccc2F)C1=O | pest or weed control at 125 g/ha | % | 20
Cc1ccc([C@H]2CNC(=O)[C@@H]2C(=O)Nc2cccc(F)c2F)cc1C | pest or weed control at 125 g/ha | % | 0
Cc1ccc([C@H]2CN(C)C(=O)[C@@H]2C(=O)Nc2cnccc2C(F)(F)F)cc1 | pest or weed control at 125 g/ha | % | 0

Next compound, please.
Which measured pest or weed control at 125 g/ha belongs to CC(C)Oc1cc([C@H]2CN(C)C(=O)[C@@H]2C(=O)Nc2ccccc2F)ccc1F , tested on ryegrass, Italian (Italian ryegrass, Lolium multiflorum)?
30
